B1: RHOBTB1 (parent)
chain: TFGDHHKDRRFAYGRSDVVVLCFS

# Variants of: B1
# assay-summary: protein stability index of a GFP-peptide fusion (GPS, HEK-293T) (PSI 1-6); higher = more stable;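 also: lentivirally expressed fusions sorted by FACS into six bins by GFP to DsRed ratio, PSI derived from sequencing read proportions per bin multiplied by bin number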
# assay-setup: c terminus: a fixed tail appended
Hi there, I'd appreciate the recorded protein stability index for every entry that follows.
One number for each entry.

F2L 2.32

Give one value of protein stability index per listed variant.
1. L21S
2. G3V

2.15
3.29
